Reference for the values: patent US11414419B2

# AUC(0-inf) per record follows
procedure_summary: in vivo
setup_conditions: male, SD, rat, po, 5 mg/kg, AUCINF_pred
value_kind: AUC(0-inf) (ng·h/mL)

compound	scale_unit	measured
Cc1nc(NCc2ccco2)c2nc(C)[nH]c2n1 [MTK-115]	ng·h/mL	5450
c1coc(CNc2ncnc3[nH]cnc23)c1 [kinetin, reference compound]	ng·h/mL	130
C/C=C/CNc1nc(C)nc2[nH]cnc12 [MTK-63A]	ng·h/mL	306
